These measurements were taken from ChEMBL document CHEMBL1932952.

assayed system: Histone deacetylase
measurement protocol: Inhibition of HDAC in human K562 cells using Boc-L-Lys(trifluoroacetyl)-MCA as substrate by fluorogenic cellular assay
Assay type: cell-based

input smiles	assayed system	result comparator	IC50 (µM)
CC(=O)Nc1ccc(NC(=O)C(F)(F)C(F)(F)C(F)(F)C(F)(F)C(F)(F)C(F)(F)C(=O)NO)cc1	Histone deacetylase	>	50
O=C(NO)C(F)(F)C(F)(F)C(F)(F)C(F)(F)C(F)(F)C(F)(F)C(=O)Nc1ccccc1-c1ccccc1	Histone deacetylase	>	50
O=C(NO)C(F)(F)C(F)(F)C(F)(F)C(F)(F)C(F)(F)C(F)(F)C(=O)Nc1ccccc1	Histone deacetylase	=	49
Cc1ccc(NC(=O)C(F)(F)C(F)(F)C(F)(F)C(F)(F)C(F)(F)C(F)(F)C(=O)NO)cc1C	Histone deacetylase	>	50
O=C(NO)C(F)(F)C(F)(F)C(F)(F)C(F)(F)C(F)(F)C(F)(F)C(=O)Nc1cccc2cc3ccccc3cc12	Histone deacetylase	>	50
O=C(NO)C(F)(F)C(F)(F)C(F)(F)C(F)(F)C(F)(F)C(F)(F)C(=O)Nc1nc(-c2ccccc2)cs1	Histone deacetylase	=	14
CCc1cccc(NC(=O)C(F)(F)C(F)(F)C(F)(F)C(F)(F)C(F)(F)C(F)(F)C(=O)NO)c1	Histone deacetylase	=	42
O=C(NO)C(F)(F)C(F)(F)C(F)(F)C(F)(F)C(F)(F)C(F)(F)C(=O)Nc1ccc(I)cc1	Histone deacetylase	>	50
O=C(NO)C(F)(F)C(F)(F)C(F)(F)C(F)(F)C(F)(F)C(F)(F)C(=O)Nc1ccc2ccccc2c1	Histone deacetylase	=	45

====

# pKd per record follows
assayed system: Histone deacetylase-like amidohydrolase (Alcaligenes sp. (strain DSM 11172) (Bordetella sp. (strain FB188)))
Sequence (Q70I53 whole entry): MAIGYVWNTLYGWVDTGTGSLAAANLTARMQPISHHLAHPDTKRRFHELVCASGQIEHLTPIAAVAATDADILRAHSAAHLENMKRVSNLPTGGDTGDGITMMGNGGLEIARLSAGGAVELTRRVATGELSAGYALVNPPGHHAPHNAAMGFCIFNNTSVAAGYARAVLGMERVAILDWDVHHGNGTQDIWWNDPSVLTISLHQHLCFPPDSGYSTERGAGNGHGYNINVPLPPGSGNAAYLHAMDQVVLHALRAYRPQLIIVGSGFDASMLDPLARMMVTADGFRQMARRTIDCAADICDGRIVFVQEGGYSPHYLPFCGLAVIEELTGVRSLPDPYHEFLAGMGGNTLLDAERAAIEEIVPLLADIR
measurement protocol: Inhibition of Bordetella FB188 HDAH using Boc-L-Lys(acetyl)-MCA as substrate by fluorogenic enzymatic assay
pKd: −log10 of the molar value.

input smiles	pKd
O=C(NO)C(F)(F)C(F)(F)C(F)(F)C(F)(F)C(F)(F)C(F)(F)C(=O)Nc1cccc2ccccc12	6.43
CC(=O)Nc1ccc(NC(=O)C(F)(F)C(F)(F)C(F)(F)C(F)(F)C(F)(F)C(F)(F)C(=O)NO)cc1	5.89
Cc1ccc(NC(=O)C(F)(F)C(F)(F)C(F)(F)C(F)(F)C(F)(F)C(F)(F)C(=O)NO)cc1	6.57
O=C(NO)C(F)(F)C(F)(F)C(F)(F)C(F)(F)C(F)(F)C(F)(F)C(=O)Nc1ccc2ccc3cccc4ccc1c2c34	6.22
O=C(NO)C(F)(F)C(F)(F)C(F)(F)C(F)(F)C(F)(F)C(F)(F)C(=O)Nc1ccc(-c2cn(-c3ccccc3)nn2)cc1	5.15
O=C(NO)C(F)(F)C(F)(F)C(F)(F)C(F)(F)C(F)(F)C(F)(F)C(=O)Nc1nc(-c2ccccc2)cs1	5.66
O=C(NO)C(F)(F)C(F)(F)C(F)(F)C(F)(F)C(F)(F)C(F)(F)C(=O)Nc1ccc(-c2ccccc2)cc1	5.06
N#Cc1ccc(NC(=O)C(F)(F)C(F)(F)C(F)(F)C(F)(F)C(F)(F)C(F)(F)C(=O)NO)cc1	6.64
O=C(NO)C(F)(F)C(F)(F)C(F)(F)C(F)(F)C(F)(F)C(F)(F)C(=O)Nc1ccc2cc3ccccc3cc2c1	5.04
O=C(NO)C(F)(F)C(F)(F)C(F)(F)C(F)(F)C(F)(F)C(F)(F)C(=O)Nc1cc2ccccc2c2ccccc12	6.54
O=C(Nc1ccccc1)C(F)(F)C(F)(F)C(F)(F)C(F)(F)C(F)(F)C(F)(F)C(=O)Nc1ccccc1	4.57
O=C(NO)C(F)(F)C(F)(F)C(F)(F)C(F)(F)C(F)(F)C(F)(F)C(=O)Nc1ccc2ccccc2c1	6.80
O=C(NO)C(F)(F)C(F)(F)C(F)(F)C(F)(F)C(F)(F)C(F)(F)C(=O)Nc1ccc(-c2cnnn2-c2ccccc2)cc1	5.35
